molecular target: D(2) dopamine receptor (Rattus norvegicus); experiment: Binding affinity against Dopamine receptor D2 in rat brain membrane using [3H]-8-OH-DPAT as a selective ligand.; format: cell membranes; conditions: in the assay text read “[3H]domperidone as radioligand” for “[3H]-8-OH-DPAT as a selective ligand”
Sequence (P61169 whole entry): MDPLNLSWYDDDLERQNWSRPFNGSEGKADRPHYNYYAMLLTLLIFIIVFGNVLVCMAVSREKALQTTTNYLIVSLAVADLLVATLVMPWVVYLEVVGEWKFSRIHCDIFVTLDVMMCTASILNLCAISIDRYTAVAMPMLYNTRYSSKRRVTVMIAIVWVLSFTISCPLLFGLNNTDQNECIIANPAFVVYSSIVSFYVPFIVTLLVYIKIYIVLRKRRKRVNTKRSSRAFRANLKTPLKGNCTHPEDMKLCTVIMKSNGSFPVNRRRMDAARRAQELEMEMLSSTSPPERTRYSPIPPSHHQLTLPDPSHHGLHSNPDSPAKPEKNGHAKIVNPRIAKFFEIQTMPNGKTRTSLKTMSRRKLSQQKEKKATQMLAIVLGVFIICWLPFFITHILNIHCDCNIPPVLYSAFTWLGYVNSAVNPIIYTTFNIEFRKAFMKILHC
pIC50: −log10 of the molar value.
observation_type: pIC50

{"columns": ["compound", "reported"],
 "data": [
  ["O=C1CC2(CCCC2)CC(=O)N1CCCCNCC1COc2ccccc2O1 (centres undefined)", 6.80]
]}

A. O=C1CC2(CCCC2)CC(=O)N1CCCCNCC1COc2ccc3ccccc3c2O1 (centres undefined)
B. O=C1CC2(CCCC2)CC(=O)N1CCCCNC[C@H]1COc2ccccc2O1
C. O=C1CC2(CCCC2)CC(=O)N1CCCCNC[C@@H]1COc2ccccc2O1
Query: Provide the items ranked by increasing pIC50. Please write the labels in the order that was asked for.
Result: C, A, B

----------
Molecular target: 5-hydroxytryptamine receptor 1A (Rattus norvegicus)
Sequence (P19327 whole entry): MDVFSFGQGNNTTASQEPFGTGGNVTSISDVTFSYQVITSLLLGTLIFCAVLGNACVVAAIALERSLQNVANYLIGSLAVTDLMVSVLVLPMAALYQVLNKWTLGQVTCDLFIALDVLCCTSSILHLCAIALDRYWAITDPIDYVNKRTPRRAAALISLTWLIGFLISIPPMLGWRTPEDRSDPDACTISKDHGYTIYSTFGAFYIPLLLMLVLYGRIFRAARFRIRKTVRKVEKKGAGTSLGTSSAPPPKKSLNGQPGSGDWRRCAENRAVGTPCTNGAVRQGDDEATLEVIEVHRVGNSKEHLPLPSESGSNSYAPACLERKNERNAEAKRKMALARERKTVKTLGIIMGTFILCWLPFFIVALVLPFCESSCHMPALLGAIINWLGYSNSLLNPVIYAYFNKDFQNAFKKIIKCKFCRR
Test: Binding affinity towards 5-hydroxytryptamine 1A receptor in rat brain membrane using [3H]8-OH-DPAT as a selective ligand.
Format: cell membranes
observation_type: IC50 (µM)

Example entries and their recorded answers appear below.
{"columns": ["compound", "IC50 [µM]"],
 "data": [
  ["CSc1ccc2c(c1)[C@H](N1CCN(C)CC1)Cc1ccccc1S2", 0.851],
  ["O=C(CCCN1CCC2(CC1)C(=O)NCN2c1ccccc1)c1ccc(F)cc1 [SPIPERONE]", 0.123]
]}

1. O=C1CC2(CCCC2)CC(=O)N1CCCCNCC1COc2cc3ccccc3cc2O1 (centres undefined)
2. O=C1CC2(CCCC2)CC(=O)N1CCCCNC[C@@H]1COc2ccccc2O1
Query: Just tell me: smaller IC50 value, 1 or 2 ? # answer = label of selected item
Result: 2

----------
molecular target: Serotonin 2 (5-HT2) receptor (Rattus norvegicus, UniProt P30994+P08909+P14842); experiment: Binding affinity towards 5-hydroxytryptamine 2 receptor in rat brain membrane using […] as a selective ligand.; assay type: cell membranes
observation_type: Log IC50

{"columns": ["molecule", "Log IC50"],
 "data": [
  ["O=C1CC2(CCCC2)CC(=O)N1CCCCNC[C@H]1COc2ccccc2O1", -6.7],
  ["O=C1CC2(CCCC2)CC(=O)N1CCCCNCC1COc2ccc3ccccc3c2O1 (stereo not given)", -6.8],
  ["O=C1CC2(CCCC2)CC(=O)N1CCCCNCC1COc2ccccc2O1 (stereo not given)", -6.2],
  ["O=C1CC2(CCCC2)CC(=O)N1CCCCNC[C@@H]1COc2ccccc2O1", -6.1],
  ["O=C1CC2(CCCC2)CC(=O)N1CCCCNCC1COc2c(ccc3ccccc23)O1 (stereo not given)", -5.9]
]}
